# Tested on: CAKI-1 renal
# ASSAY_NOTES: NCI tumour cell line growth inhibition, 48 h
MEASURED_ENDPOINT: TGI

Please fill in: TGI reported for NC(=NCCCOc1ccc(Cl)cc1)Nc1ccc(Cl)cc1 = 9.11 µM

Please fill in: TGI reported for CC1(C)N=C(C(N)=O)c2ncn(-c3ccccc3)c2N1 = > 100 µM

Please fill in: TGI reported for O=C(CC(=O)N1N=C(N2CCCCC2)CC1c1ccccc1)Nc1ccc(Cl)cc1 (stereo unspecified) = > 100 µM

Please fill in: TGI reported for O=C1CN2Cc3cc(N4CCOCC4)ccc3N=C2N1 = > 100 µM

---

TGI values, listed per item
# Tested on: BT-549 breast
# ASSAY_NOTES: NCI tumour cell line growth inhibition, 48 h
Give the value, in units of µM, as a plain number.

Examples with their reported TGI follow.
| COMPOUND | TGI [µM] |
| --- | --- |
| C=C(C)[C@@H]1CC[C@]2(C)[C@H](C(=O)C=C3[C@@H]4C[C@](C)(C(=O)N5CCN(C)CC5)CC[C@]4(C)CC[C@]32C)[C@@]1(C)CCC#N | 13.4 |
| O=C/C(=C(/Br)I)c1ccccc1 | 4.86 |
| O=C(NNC(=S)Nc1ccccc1)c1ccccc1Nc1ccccc1C(=O)NNC(=S)Nc1ccccc1 | 57.7 |
| CCNC1(c2cccc(C)c2)OC(C)(C)c2cccc3cccc1c23 (centres undefined) | 37.2 |
| CC1OC(OC2C(O[C@H]3CC[C@@]4(C)[C@@H](CC[C@@H]5[C@@H]4CC[C@]4(C)[C@@H]6[C@H](C[C@@H]54)O[C@]4(CC[C@@H](C)CO4)[C@H]6C)C3)OC(CO)C(OC3OC(CO)C(O)C(OC4OCC(O)C(O)C4O)C3OC3OCC(O)C(O)C3O)C2O)C(O)C(O)C1O (some centres undefined) | 2.36 |

Result for CN(C)c1ccc(/C=C(/NC(=O)c2ccccc2)c2nc3ccc(Cl)cc3[nH]2)cc1 , tested on BT-549 breast, TGI: 85.8

Result for COc1ccc(/C=C2\C[C@H]3[C@@H]4CCC5=C[C@@H](N6CCCC6)CC[C@]5(C)[C@H]4CC[C@]3(C)[C@H]2O)cc1 , tested on BT-549 breast, TGI: 14.1

---

# System: EKVX NSCLC
# ASSAY_NOTES: NCI tumour cell line growth inhibition, 48 h; in the data active = GI50 below about 0.43 µM; inactive = the rest
API: response.call in TRUE for active, FALSE for inactive

| COMPOUND | SYSTEM | CATEGORY_LABEL |
| --- | --- | --- |
| CCOc1ccc([C@@H]2[C@@H](Oc3ccccc3)C(=O)N2c2cc(OC)c(OC)c(OC)c2)cc1 | EKVX NSCLC | TRUE |
| C=C(C)[C@@H]1CC[C@]2(C)[C@H](C(=O)C=C3[C@@H]4C[C@](C)(C(=O)N5CCN(C)CC5)CC[C@]4(C)CC[C@]32C)[C@@]1(C)CCC#N | EKVX NSCLC | FALSE |
| O=C1OCC(c2cccs2)=C1Cl | EKVX NSCLC | FALSE |
| N#Cc1c(-c2ccc(Cl)cc2)n(O)c2ccccc12 | EKVX NSCLC | FALSE |
| O=C1C(Br)=CC2(C=C1Br)CCN=c1c2c(O)c2nc3ccccc3c3ccnc1c23 | EKVX NSCLC | FALSE |
| COC(=O)c1ccc2c(c1)nc(-c1cc3ccccc3[nH]c1=O)n2-c1cc(C(C)(C)C)[nH]n1 | EKVX NSCLC | FALSE |
| CCCCCCCCCCCCCCCCCC1=NCCN1CS(=O)(=O)O | EKVX NSCLC | FALSE |
| CCC[CH2][Sn]([CH2]CCC)([O]C(=O)c1cc(F)cc(F)c1)[O]C(=O)c1cc(F)cc(F)c1 | EKVX NSCLC | FALSE |

Record request — test call for CCN(CC)CCCNc1cccc2c(SCc3ccccc3)ccnc12 FALSE

Record request — test call for COc1cccc(C2C(C#N)=C(N)Oc3cc(N)ccc32)c1 (stereo not given) FALSE

Record request — test call for CCCCCC(O)C1C(=O)OC(C)C(O)/C=C/C=C/C=C/C=C\C=C(\C)C(O)CC(O)CC(O)CC(O)CC(O)CC(O)CC1O (stereo not given) FALSE

Record request — test call for COCC1CCCN1c1ccc(/C=C(/C#N)C(N)=S)cc1 (stereo not given) FALSE

Record request — test call for CC(=O)c1ccc(NC(=O)CSc2nnc(-c3cc(-c4ccc(C)cc4)nc4ccccc34)o2)cc1 FALSE

Record request — test call for CCCCCCCC/C=C/CCCCCCCC1=NCC[N+]1(CCO)CCO FALSE

Record request — test call for COc1ccc(C(=O)c2ccc(OC)c(OC)c2OC)cc1 FALSE

Record request — test call for COc1cc(NCCCCN=C(N)NC(N)=NC(C)C)c2ncccc2c1 FALSE
